Parameter: half-life. Scope: all listed entries.
assay: Half-life of the conjugate when treated with 25% murine serum for enzymatic stability; format: ADME; conditions: mouse
Residues, ends and D or L forms follow the SMILES beside them.
Respond numerically; units are min and should not be typed.

{"compound": "N=C(N)NCCCC[C@H](NC(=O)[C@H](CCCCNC(=N)N)NC(=O)[C@H](CCCCNC(=N)N)NC(=O)[C@H](CCCCNC(=N)N)NC(=O)[C@H](CCCCNC(=N)N)NC(=O)[C@H](CCCCNC(=N)N)NC(=O)[C@H](CCCCNC(=N)N)NC(=O)[C@@H](N)CCCCNC(=N)N)C(=O)N[C@H](C=O)CCCCN", "readout units": "min", "half-life": 900}

Now turn to the next compound.
Problem: Name the recorded half-life of the compound listed here: NCCCC[C@@H](C=O)NC(=O)[C@H](Cc1c[nH]cn1)NC(=O)[C@H](Cc1c[nH]cn1)NC(=O)[C@H](Cc1c[nH]cn1)NC(=O)[C@H](Cc1c[nH]cn1)NC(=O)[C@H](Cc1c[nH]cn1)NC(=O)[C@H](Cc1c[nH]cn1)NC(=O)[C@H](Cc1c[nH]cn1)NC(=O)[C@@H](N)Cc1c[nH]cn1 (H-HHHHHHHHK-aldehyde)
Result: 2640

====

Parameter: half-life. Scope: all listed entries.
assay: Half-life of the conjugate when treated with 10% foetal bovine serum for enzymatic stability; format: ADME, Bos taurus; conditions: cattle
Non-standard residues stand in square brackets, D forms with d. Residues, ends and D or L forms follow the SMILES beside them. Lys(Me2) = CN(C)CCCC[C@H](N)C(=O)O; Nlys = NCCCCNCC(=O)O

Problem: Name the recorded half-life of the molecule listed here: CN(C)CCCC[C@H](NC(=O)[C@H](CCCCN)NC(=O)[C@H](CCCCN)NC(=O)[C@H](CCCCN(C)C)NC(=O)[C@H](CCCCN)NC(=O)[C@@H](N)CCCCN)C(=O)N[C@@H](CCCCN)C(=O)N[C@@H](CCCCN)C(=O)N[C@H](C=O)CCCCN (H-KK[Lys(Me2)]KK[Lys(Me2)]KKK-aldehyde)
Result: > 168 h

Problem: Name the recorded half-life of the molecule listed here: NCCCC[C@H](NC(=O)[C@H](CCCCN)NC(=O)[C@H](CCCCN)NC(=O)CN(CCCCN)C(=O)[C@H](CCCCN)NC(=O)[C@H](CCCCN)NC(=O)CN(CCCCN)C(=O)[C@H](CCCCN)NC(=O)[C@@H](N)CCCCN)C(=O)O (H-KK[Nlys]KK[Nlys]KKK-OH)
Result: > 168 h

====

experiment: Half-life of the conjugate when treated with 10% foetal bovine serum for enzymatic stability; type: ADME, Bos taurus; conditions: cattle
Non-standard residues stand in square brackets, D forms with d. Residues, ends and D or L forms follow the SMILES beside them. hLys = NCCCCC[C@H](N)C(=O)O
property name: half-life

# annotated cases, reported half-life shown
{"compound": "N=C(N)NCCCC[C@H](NC(=O)[C@H](CCCCNC(=N)N)NC(=O)[C@H](CCCCNC(=N)N)NC(=O)[C@H](CCCCNC(=N)N)NC(=O)[C@H](CCCCNC(=N)N)NC(=O)[C@H](CCCCNC(=N)N)NC(=O)[C@H](CCCCNC(=N)N)NC(=O)[C@@H](N)CCCCNC(=N)N)C(=O)N[C@H](C=O)CCCCN", "half-life": "> 168 h"}
{"compound": "N=C(N)NCCC[C@H](NC(=O)[C@H](CCCNC(=N)N)NC(=O)[C@H](CCCNC(=N)N)NC(=O)[C@H](CCCNC(=N)N)NC(=O)[C@H](CCCNC(=N)N)NC(=O)[C@H](CCCNC(=N)N)NC(=O)[C@H](CCCNC(=N)N)NC(=O)[C@@H](N)CCCNC(=N)N)C(=O)N[C@H](C=O)CCCCN (H-RRRRRRRRK-aldehyde)", "half-life": "20 h"}

Problem: Name the recorded half-life of the compound listed here: NCCCCC[C@H](NC(=O)[C@H](CCCCCN)NC(=O)[C@H](CCCCCN)NC(=O)[C@H](CCCCCN)NC(=O)[C@H](CCCCCN)NC(=O)[C@H](CCCCCN)NC(=O)[C@H](CCCCCN)NC(=O)[C@@H](N)CCCCCN)C(=O)N[C@H](C=O)CCCCN (H-[hLys][hLys][hLys][hLys][hLys][hLys][hLys][hLys]K-aldehyde)
Result: > 168 h
